experiment: Cmax in mouse at 30 mg/kg, im administered as single dose and measured after 30 mins; format: ADME, organism-based; design: dose 30 mg/kg, route intramuscular; conditions: in vivo
readout-name: Cmax (ng/mL)

> print(dat)
                                   molecule  unit.annotation  numeric.value
1  CCC(CC)[C@H](NC(C)=O)[C@@H]1[C@H](O)[C@@H](C(=O)O)C[C@H]1NC(=N)N [PERAMIVIR ANHYDROUS]            ng/mL          17700

----------
test: Cmax in mouse at 30 mg/kg, im administered as single dose and measured after 24 hrs; format: ADME, organism-based; design: dose 30 mg/kg, route intramuscular; conditions: in vivo
readout-name: Cmax (ng/mL)

> print(dat)
                                   molecule  readout.name  numeric.value
1  CCC(CC)[C@H](NC(C)=O)[C@@H]1[C@H](O)[C@@H](C(=O)O)C[C@H]1NC(=N)N [PERAMIVIR ANHYDROUS]          Cmax           29.3
